- ASSAY TEXT: Bi-directional Caco-2 permeability (transport) assay
- Type: in vitro ADME, human
- CONDITIONS USED: Caco-2, OCT 10 μM; MRP2 and P-gp inhibition
MEASURE: Papp A→B
Don't forget the unit after the value.

Enquiry: Given C[C@@H](O)[C@@H]1NC(=O)[C@H](CCCCN)NC(=O)[C@@H](Cc2c[nH]c3ccccc23)NC(=O)[C@H](Cc2ccccc2)NC(=O)[C@@H](NC(=O)[C@H](N)Cc2ccccc2)CSSC[C@@H](C(=O)N[C@H](CO)[C@@H](C)O)NC1=O [OCT, octreotide] , respond with its Papp A→B.
Return: 0.368 ×10⁻⁶ cm/s

###

- ASSAY TEXT: Bi-directional Caco-2 permeability (transport) assay
- Assay type: in vitro ADME, human
- CONDITIONS USED: Caco-2, OCT 50 μM; Control (no inhibitor)
MEASURE: Papp B→A (×10⁻⁶ cm/s)
Your answer is read as ×10⁻⁶ cm/s, so omit the unit and give the number.

Enquiry: Given C[C@@H](O)[C@@H]1NC(=O)[C@H](CCCCN)NC(=O)[C@@H](Cc2c[nH]c3ccccc23)NC(=O)[C@H](Cc2ccccc2)NC(=O)[C@@H](NC(=O)[C@H](N)Cc2ccccc2)CSSC[C@@H](C(=O)N[C@H](CO)[C@@H](C)O)NC1=O [OCT, octreotide] , respond with its Papp B→A.
Return: 1.33

Where these numbers come from: paper PMC7789354
